Test system: KRAS-WT/SOS1 (Homo sapiens)
Sequence (Q07889 1-1333): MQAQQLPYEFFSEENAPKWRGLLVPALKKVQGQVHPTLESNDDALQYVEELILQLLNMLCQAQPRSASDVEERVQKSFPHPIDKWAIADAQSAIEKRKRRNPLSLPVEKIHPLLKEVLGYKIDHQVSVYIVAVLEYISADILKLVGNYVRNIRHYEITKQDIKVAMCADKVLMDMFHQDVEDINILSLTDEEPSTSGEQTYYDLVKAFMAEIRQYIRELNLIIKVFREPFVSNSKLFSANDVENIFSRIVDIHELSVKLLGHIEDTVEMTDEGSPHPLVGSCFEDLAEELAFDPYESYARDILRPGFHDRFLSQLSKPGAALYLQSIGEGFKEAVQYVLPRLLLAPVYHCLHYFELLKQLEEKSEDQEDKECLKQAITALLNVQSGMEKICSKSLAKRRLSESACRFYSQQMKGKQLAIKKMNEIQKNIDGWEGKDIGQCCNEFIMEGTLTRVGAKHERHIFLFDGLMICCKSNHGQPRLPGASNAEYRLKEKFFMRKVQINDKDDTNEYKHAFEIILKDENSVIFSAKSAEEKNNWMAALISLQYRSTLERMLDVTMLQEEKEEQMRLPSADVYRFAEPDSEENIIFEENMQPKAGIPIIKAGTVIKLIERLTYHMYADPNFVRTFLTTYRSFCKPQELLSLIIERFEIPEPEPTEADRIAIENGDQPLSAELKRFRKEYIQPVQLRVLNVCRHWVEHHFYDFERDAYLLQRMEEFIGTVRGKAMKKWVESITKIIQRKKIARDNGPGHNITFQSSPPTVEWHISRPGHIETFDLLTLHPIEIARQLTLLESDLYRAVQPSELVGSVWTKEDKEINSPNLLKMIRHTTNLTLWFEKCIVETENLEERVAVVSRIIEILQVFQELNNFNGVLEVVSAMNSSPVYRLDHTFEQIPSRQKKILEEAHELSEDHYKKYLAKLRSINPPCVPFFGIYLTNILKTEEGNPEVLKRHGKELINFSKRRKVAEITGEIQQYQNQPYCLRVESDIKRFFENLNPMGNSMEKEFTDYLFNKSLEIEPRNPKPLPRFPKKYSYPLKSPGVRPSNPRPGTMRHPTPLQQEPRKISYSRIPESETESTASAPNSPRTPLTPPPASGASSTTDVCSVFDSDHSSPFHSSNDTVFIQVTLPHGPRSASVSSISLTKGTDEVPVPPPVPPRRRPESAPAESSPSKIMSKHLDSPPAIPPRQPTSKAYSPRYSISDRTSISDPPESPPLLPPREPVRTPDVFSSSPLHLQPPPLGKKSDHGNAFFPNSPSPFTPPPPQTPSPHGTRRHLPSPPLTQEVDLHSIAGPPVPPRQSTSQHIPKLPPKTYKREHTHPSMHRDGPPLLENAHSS
Method notes: biochemical
pIC50: −log10 of the molar value.
Parameter: pIC50

COc1c(-c2cnc[nH]2)cc(C(=O)N[C@H](C)c2cccc3c2CCC3(F)F)c2n[nH]cc12 [Example 22] : 6.30 to 7.00
COc1c(N2CCNCC2)cc(C(=O)N[C@H](C)c2cccc(C(F)(F)CO)c2)c2[nH]ncc12 [Example 33] : > 7.00
C[C@@H](NC(=O)c1cn(C2(C)CC2)c(=O)c2cn[nH]c12)c1cccc(C(C)(F)F)c1F [Example 7] : > 7.00
COc1c(O[C@H]2CCOC2)cc(C(=O)N[C@H](C)c2cc(N)cc(C(F)(F)F)c2)c2n[nH]cc12 [Example 28] : 6.30 to 7.00
COc1c(N2CCOCC2)cc(C(=O)N[C@H](C)c2cccc3c2CCC3(F)F)c2n[nH]cc12 [Example 18] : > 7.00
COc1c(-c2cnc[nH]2)cc(C(=O)N[C@H](C)c2cccc(C(F)(F)CO)c2)c2n[nH]cc12 [Example 23] : 6.30 to 7.00
COc1c(CN(C)C)cc(C(=O)N[C@H](C)c2cccc(C(F)(F)CO)c2)c2n[nH]cc12 [Example 20] : 6.30 to 7.00

---

Each entry below carries its reported pIC50.
Test system: KRAS G12D/SOS1 (Homo sapiens, UniProt Q07889)
Method notes: biochemical
pIC50: −log10 of the molar value.
Parameter: pIC50

C[C@@H](NC(=O)c1cn(C2CC(F)(F)C2)c(=O)c2cn[nH]c12)c1cccc2c1CCC2(F)F [Example 13] : > 7.00
C[C@@H](NC(=O)c1cn(C2(C)CC2)c(=O)c2c[nH]nc12)c1cccc2c1CCC2(F)F [Example 4] : > 7.00
CNCc1ccccc1-c1ccc([C@@H](C)NC(=O)c2cn(C3(C)CC3)c(=O)c3cn[nH]c23)s1 [Example 9] : > 7.00
COc1c(N2CCN(C)CC2)cc(C(=O)N[C@H](C)c2cccc(C(F)(F)CO)c2)c2[nH]ncc12 [Example 32] : > 7.00
C[C@@H](NC(=O)c1cn(C2(C)CC2)c(=O)c2c[nH]nc12)c1cccc(C(F)(F)CO)c1 [Example 5] : > 7.00
C[C@@H](NC(=O)c1cn(C2CCOCC2)c(=O)c2c[nH]nc12)c1cccc(C(F)F)c1F [Example 3] : > 7.00
COc1c(CN(C)C)cc(C(=O)N[C@H](C)c2cccc3c2CCC3(F)F)c2n[nH]cc12 [Example 19] : 6.30 to 7.00
COc1c(O[C@H]2CCOC2)cc(C(=O)N[C@H](C)c2cccc(C(F)(F)F)c2)c2n[nH]cc12 [Example 27] : 6.30 to 7.00
Cc1c([C@@H](C)NC(=O)c2cn(C3(C)CC3)c(=O)c3cn[nH]c23)cccc1C(F)(F)F [Example 6] : 6.30 to 7.00
COc1c(-c2cnc[nH]2)cc(C(=O)N[C@H](C)c2cccc3c2CCC3(F)F)c2n[nH]cc12 [Example 22] : 6.30 to 7.00
